# credit: patent US7507860B2

Target: androgen receptor (Homo sapiens)
Sequence (P10275 1-920 Q868H): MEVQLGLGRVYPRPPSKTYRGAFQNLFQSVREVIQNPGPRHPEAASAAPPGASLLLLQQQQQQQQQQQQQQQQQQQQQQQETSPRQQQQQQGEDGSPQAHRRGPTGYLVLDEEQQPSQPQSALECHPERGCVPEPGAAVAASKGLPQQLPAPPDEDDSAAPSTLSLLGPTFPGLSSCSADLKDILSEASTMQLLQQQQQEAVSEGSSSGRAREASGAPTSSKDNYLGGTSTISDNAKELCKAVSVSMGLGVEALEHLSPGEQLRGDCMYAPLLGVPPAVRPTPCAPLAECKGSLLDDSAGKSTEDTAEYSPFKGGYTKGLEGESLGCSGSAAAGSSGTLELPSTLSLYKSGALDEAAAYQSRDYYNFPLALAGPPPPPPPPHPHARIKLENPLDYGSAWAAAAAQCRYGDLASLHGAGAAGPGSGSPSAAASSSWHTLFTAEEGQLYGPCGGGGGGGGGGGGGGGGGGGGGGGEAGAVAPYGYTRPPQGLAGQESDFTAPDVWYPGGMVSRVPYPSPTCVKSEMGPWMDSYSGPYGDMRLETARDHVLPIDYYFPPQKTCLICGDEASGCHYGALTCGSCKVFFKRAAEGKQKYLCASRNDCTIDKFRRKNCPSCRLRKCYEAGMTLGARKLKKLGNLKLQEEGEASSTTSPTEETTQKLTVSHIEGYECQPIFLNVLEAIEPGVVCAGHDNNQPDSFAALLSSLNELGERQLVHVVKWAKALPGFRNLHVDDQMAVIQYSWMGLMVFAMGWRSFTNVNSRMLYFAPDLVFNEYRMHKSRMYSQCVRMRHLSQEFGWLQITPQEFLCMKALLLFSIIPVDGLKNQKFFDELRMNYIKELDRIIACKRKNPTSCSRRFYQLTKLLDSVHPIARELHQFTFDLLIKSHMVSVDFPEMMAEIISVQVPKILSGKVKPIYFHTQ
Experiment: AR antagonist cell assay (MDA-MB453-MMTV clone 54-19 luciferase reporter, 100 pM DHT)
Assay type: cell-based
Settings: MDA-MB453-MMTV clone 54-19, inhibition of 100 pM DHT induction, 17 hr; mean of multiple tests; read-out: AR Cell IC50
pIC50: −log10 of the molar value.
# Lookup of reported pIC50 keyed by entry

# compound, comparisonOperator, pIC50
data = [
    ("CC(C)CC(Oc1ccc(C#N)c(C(F)(F)F)c1)C(=O)NCC1CC1 (centres unmarked)", "=", 6.18),
    ("CC(C)CC(Oc1ccc(C#N)c(C(F)(F)F)c1)C(=O)NCc1ccc2c(c1)CCO2 (centres unmarked)", "=", 6.10),
    ("Cc1cccc(CCNC(=O)C(CC(C)C)Oc2ccc(C#N)c(C(F)(F)F)c2)c1 (centres unmarked)", "<", 6.00),
    ("CC(C)CC(Oc1ccc(C#N)c(C(F)(F)F)c1)C(=O)NCc1ccccc1 (centres unmarked)", "=", 6.70),
    ("COc1cccc(CCNC(=O)C(CC(C)C)Oc2ccc(C#N)c(C(F)(F)F)c2)c1 (centres unmarked)", "<", 6.00),
    ("Cc1ccc(CCNC(=O)C(CC(C)C)Oc2ccc(C#N)c(C(F)(F)F)c2)cc1 (centres unmarked)", "<", 6.00),
    ("COc1ccc(CNC(=O)C(CC(C)C)Oc2ccc(C#N)c(C(F)(F)F)c2)cn1 (centres unmarked)", "=", 6.60),
    ("CCCC(Oc1ccc(C#N)c(C(F)(F)F)c1)C(=O)NCc1ccc2c(c1)OCO2 (centres unmarked)", "<", 6.00),
]
